- System: COV362
- test-name: drug sensitivity score (DSS) from 5-point dose-response viability curve (DSS (area-under-curve based score)); higher = more sensitive (stronger growth inhibition or killing); extreme values may be limits of the assay
- conditions: exposure time: 72 h; concentration range: 5 concentrations over 10,000-fold range
Quick rule for you: drug sensitivity score at 2 or higher means 1, lower means 0.

Cc1cccc(CC(=O)N2CCc3c2ccc(-c2cn(C)c4ncnc(N)c24)c3F)n1 ... 0
CC1=C(/C=C/C(C)=C/C=C/C(C)=C/C(=O)O)C(C)(C)CCC1 ... 0
CNc1nc(Nc2cn(C(C)(C)C#N)nc2C)ncc1C(F)(F)F ... 0

Decide: is the reported value of drug sensitivity score for "CC(C)(C)c1cc(NC(=O)Nc2ccc(Oc3ccnc4[nH]c(=O)cnc34)cc2F)n(-c2ccccc2)n1" equal to or greater than 2?
0

Lookup "Cc1c(C(=O)Nc2ccc(N3C[C@@H](C)O[C@@H](C)C3)nc2)cccc1-c1ccc(OC(F)(F)F)cc1"
0

Lookup "CCN1CCN(Cc2ccc(Nc3ncc(F)c(-c4cc(F)c5nc(C)n(C(C)C)c5c4)n3)nc2)CC1"
0

Lookup "O=c1sn(-c2cccc3ccccc23)c(=O)n1Cc1ccccc1"
0

Lookup "CO[C@@H](C)Cn1c(=O)n(C)c2cnc3ccc(-c4cncc(C(C)(C)O)c4)cc3c21"
1

###

- System: OVCAR5
- test-name: drug sensitivity score (DSS) from 5-point dose-response viability curve (DSS (area-under-curve based score)); higher = more sensitive (stronger growth inhibition or killing); extreme values may be limits of the assay
- conditions: exposure time: 72 h; concentration range: 5 concentrations over 10,000-fold range
This listing pairs compounds with measured drug sensitivity score.

CO[C@H]1C[C@@H]2CC[C@@H](C)[C@@](O)(O2)C(=O)C(=O)N2CCCC[C@H]2C(=O)O[C@H]([C@H](C)C[C@@H]2CC[C@@H](O)[C@H](OC)C2)CC(=O)[C@H](C)/C=C(\C)[C@@H](O)[C@@H](OC)C(=O)[C@H](C)C[C@H](C)/C=C/C=C/C=C/1C [Sirolimus] ... 4.3

Query compound follows.
Lab request: please report drug sensitivity score under test system OVCAR5 for CCOCc1nc2c(N)nc3ccccc3c2n1CC(C)(C)O [Resiquimod]
0.3

###

- Test system: HOSE2C
- test-name: drug sensitivity score (DSS) from 5-point dose-response viability curve (DSS (area-under-curve based score)); higher = more sensitive (stronger growth inhibition or killing); extreme values may be limits of the assay
- conditions: exposure time: 72 h; concentration range: 5 concentrations over 10,000-fold range
assay-endpoint: drug sensitivity score

Example entries and their recorded answers appear below.
CC[C@H](NC(=O)[C@H](C)NC)C(=O)N1C[C@@H](O)C[C@H]1Cc1c(-c2[nH]c3cc(F)ccc3c2C[C@@H]2C[C@H](O)CN2C(=O)[C@H](CC)NC(=O)[C@H](C)NC)[nH]c2cc(F)ccc12 ... 0
C=CC(=O)Nc1cccc(Nc2nc(Nc3ccc(N4CCN(C(C)=O)CC4)cc3OC)ncc2C(F)(F)F)c1 ... 6.8
CC[C@@H](C(=O)[C@@H](C)[C@@H](O)[C@H](C)[C@@H]1O[C@@H]([C@@H](CC)C(=O)O)CC[C@@H]1C)[C@H]1O[C@]2(C=C[C@@H](O)[C@]3(CC[C@@](C)([C@H]4CC[C@](O)(CC)[C@H](C)O4)O3)O2)[C@H](C)C[C@@H]1C ... 22.1
CN(C)C/C=C/C(=O)Nc1cc2c(Nc3ccc(F)c(Cl)c3)ncnc2cc1O[C@H]1CCOC1 ... 0
Cc1cccc(-c2[nH]c(CNc3ccccc3F)nc2-c2ccc3ncnn3c2)n1 ... 0.9

State the recorded drug sensitivity score for this entry: "Clc1ccccc1C(c1ccccc1)(c1ccccc1)n1cccn1"
0

Lookup "CCCOc1ccn2c(C(C)=O)cc(-c3ccccc3S(C)(=O)=O)c2c1"
0

###

- System: COV318
- test-name: drug sensitivity score (DSS) from 5-point dose-response viability curve (DSS (area-under-curve based score)); higher = more sensitive (stronger growth inhibition or killing); extreme values may be limits of the assay
- conditions: exposure time: 72 h; concentration range: 5 concentrations over 10,000-fold range
assay-endpoint: drug sensitivity score
Please reply with the value in numeric form only.

Example entries and their recorded answers appear below.
CN(C)C(=O)c1cc2cnc(Nc3ccc(N4CCNCC4)cn3)nc2n1C1CCCC1 [Ribociclib] ... 0.2
FC(F)(F)c1ccc(/C=C/c2nc(COc3ccc(CCCCn4ccnn4)cc3)co2)cc1 [Mubritinib] ... 0.8
C=CCc1cccc(/C=N/NC(=O)CN2CCN(Cc3ccccc3)CC2)c1O [PAC-1] ... 0.2
C[C@H]1CNCCCN1S(=O)(=O)c1cccc2cncc(F)c12 [Ripasudil] ... 0
C[C@]1(c2nc3c(C(N)=O)cccc3[nH]2)CCCN1 [Veliparib] ... 0

State the recorded drug sensitivity score for this entry: COc1cc(Nc2ncc(F)c(Nc3ccc4c(n3)N(COP(=O)(O)O)C(=O)C(C)(C)O4)n2)cc(OC)c1OC [Fostamatinib]
1.5

Lookup CO[C@H](C(=O)[C@@H](O)[C@@H](C)O)[C@@H]1Cc2cc3cc(O[C@H]4C[C@@H](O[C@@H]5C[C@@H](O)[C@H](O)[C@@H](C)O5)[C@H](O)[C@@H](C)O4)c(C)c(O)c3c(O)c2C(=O)[C@H]1O[C@H]1C[C@@H](O[C@@H]2C[C@@H](O)[C@@H](O[C@@H]3C[C@](C)(O)[C@H](O)[C@@H](C)O3)[C@@H](C)O2)[C@H](O)[C@@H](C)O1 [Plicamycin]
0

Lookup "CCn1cc(-c2ccnc3[nH]c(-c4cccc(CN(C)C)c4)cc23)c(-c2ccc(NC(=O)N(C)C)cc2)n1"
0.2

Lookup CCN1C(=O)CNc2ncc(-c3ccc(-c4nc[nH]n4)nc3C)nc21 [CC-115]
5.6

Lookup COc1ncc(-c2ccc3nccc(-c4ccnnc4)c3c2)cc1NS(=O)(=O)c1ccc(F)cc1F [Omipalisib]
10.7

Lookup "CNC(=O)c1ccc(C)c(-n2c(C)cc(OCc3ccc(F)cc3F)c(Br)c2=O)c1"
0

Lookup COc1cc(OC)c(/C=C/S(=O)(=O)Cc2ccc(OC)c(NCC(=O)O)c2)c(OC)c1 [Rigosertib]
11.7

Lookup N[C@@H]1CCCN(c2c(/C=C3\SC(=O)NC3=O)cccc2-c2ccccc2)C1 [AZD1208]
1.1

Lookup Cc1cc(Nc2cc(N3CCN(C)CC3)nc(Sc3ccc(NC(=O)C4CC4)cc3)n2)n[nH]1 [Tozasertib]
1.3

Lookup CC(=O)[C@]1(O)Cc2c(O)c3c(c(O)c2[C@@H](O[C@H]2C[C@H](N)[C@H](O)[C@H](C)O2)C1)C(=O)c1ccccc1C3=O [Idarubicin]
6.1

###

- Tested on: CAOV3
- test-name: drug sensitivity score (DSS) from 5-point dose-response viability curve (DSS (area-under-curve based score)); higher = more sensitive (stronger growth inhibition or killing); extreme values may be limits of the assay
- conditions: exposure time: 72 h; concentration range: 5 concentrations over 10,000-fold range
assay-endpoint: drug sensitivity score

Example entries and their recorded answers appear below.
O=C(O)c1ccc(CN2CCC(CN[C@@H]3C[C@H]3c3ccccc3)CC2)cc1 ... 0
C1=N/C2=N/c3ccc(OCCN4CCCC4)c(c3)COC/C=C/COCc3cccc(c3)C(=C1)N2 ... 7.6
Cc1cc2c(C(=O)NC[C@H](C)c3ccccc3)c(O)c(O)cc2c(O)c1-c1c(C)cc2c(C(=O)NC[C@H](C)c3ccccc3)c(O)c(O)cc2c1O ... 15.4
CC[C@H](C)C(=O)O[C@H]1C[C@@H](C)C=C2C=C[C@H](C)[C@H](CC[C@@H]3C[C@@H](O)CC(=O)O3)[C@H]21 ... 0
CNC(=O)c1ccc2cc([C@@]3(O)CCn4cncc43)ccc2c1 ... 0

State the recorded drug sensitivity score for this entry: "Nc1nc(N)c2nc(-c3cccc(O)c3)c(-c3cccc(O)c3)nc2n1"
0.3

Lookup "Cn1cnc2c(F)c(Nc3ccc(Br)cc3F)c(C(=O)NOCCO)cc21"
7.6

###

This listing pairs molecules with measured drug sensitivity score.
- System: OVCAR4
- test-name: drug sensitivity score (DSS) from 5-point dose-response viability curve (DSS (area-under-curve based score)); higher = more sensitive (stronger growth inhibition or killing); extreme values may be limits of the assay
- conditions: exposure time: 72 h; concentration range: 5 concentrations over 10,000-fold range
Please reply with the value in numeric form only.

C=CC(=O)Nc1cccc(Oc2nc(Nc3ccc(N4CCN(C)CC4)cc3)nc3ccsc23)c1 [Olmutinib] ... 0.1
C[C@@H]1CN(Cc2ccc(F)cc2)[C@@H](C)CN1C(=O)c1cc2c(C(=O)C(=O)N(C)C)cn(C)c2cc1Cl [Talmapimod] ... 0
CNC(=O)c1ccc(C)c(-n2c(C)cc(OCc3ccc(F)cc3F)c(Br)c2=O)c1 ... 0
Cc1ncc(-c2ccnc(Nc3ccc(S(C)(=O)=O)cc3)n2)n1C(C)C [AZD-5438] ... 2.9
COc1cccc2c1C(=O)c1c(O)c3c(c(O)c1C2=O)C[C@@](O)(C(=O)CO)C[C@@H]3O[C@H]1C[C@H](N)[C@@H](O)[C@H](C)O1 [Epirubicin] ... 2.9

State the recorded drug sensitivity score for this entry: COc1cc2c(Oc3ccc(NC(=O)C4(C(=O)Nc5ccc(F)cc5)CC4)cc3F)ccnc2cc1OCCCN1CCOCC1 [Foretinib]
3.2

Lookup "C[C@@H]1CN(CC(=O)Nc2ccc3c(c2)Cc2cccc(-c4cc(=O)cc(N5CCOCC5)o4)c2S3)C[C@H](C)O1"
0.7

Lookup C[C@H](Nc1ncnc2[nH]cnc12)c1cc2ccc(F)cc2nc1-c1ccccn1 [AMG319]
0.7

Lookup Cc1ccc(C(=O)Nc2cccc(C(F)(F)F)c2)cc1Nc1nc(-c2cccnc2)nc2c1cnn2C [NVP-BHG712]
1.4

Lookup CNC(=O)c1ccc2cc([C@@]3(O)CCn4cncc43)ccc2c1 [Orteronel]
0

Lookup "CC(C)(C)C[C@@H]1N[C@@H](C(=O)N[C@H]2CC[C@H](O)CC2)[C@H](c2cccc(Cl)c2F)[C@]12C(=O)Nc1cc(Cl)ccc12"
0.1

Lookup C/C=C1\NC(=O)[C@H]2CSSCC/C=C/[C@H](CC(=O)N[C@H](C(C)C)C(=O)N2)OC(=O)[C@H](C(C)C)NC1=O [Romidepsin]
20.8
